Ref: PubChem BioAssay (NCI)

Attribute: GI50
- System: SF-268 CNS
- test name: NCI tumour cell line growth inhibition, 48 h

molecule: Nc1ccn(C2OC(CO)C(O)C2O)c(=O)n1 (configuration not stated)
GI50: 1.01 µM

Could you please provide reported GI50 for `COc1ccc(-c2nnc(N3CCN(C(=O)CN4CCN(c5ccccc5)CC4)CC3)nc2-c2ccc(OC)cc2)cc1` ? Thanks!
83.4 µM

Indicate its recorded GI50; the molecule in question is `COc1cc(/C=C/C(=O)c2cccc(-n3cc(-c4ccc(Cl)cc4)[nH]c3=O)c2)ccc1O`
2.93 µM

Please list GI50 recorded for the molecule `O=C(Nc1ccc(Cl)c(C(F)(F)F)c1)c1ccc(NC2=C(Cl)C(=O)N(Cc3ccccc3)C2=O)cc1`
2.76 µM

Indicate the recorded GI50 value for this molecule: COc1ccc(-c2nsc3c2NC(=O)CC3c2cccc(OC)c2)cc1 (configuration not stated)
4.53 µM

Respond only with GI50 recorded for `Cn1c(Nc2ccc(C(F)(F)F)cc2)nc2cc(Oc3ccnc(-c4ncc(C(F)(F)F)[nH]4)c3)ccc21`
0.966 µM

State its GI50 for this molecule: `COC(=O)c1cc2c(s1)-c1nccc3c1c(nc1ccccc13)C2=O`
29.1 µM

For the molecule `Cn1c(=O)c(Oc2ccc(F)cc2)cc2cnc(NC3CCOCC3)nc21` , give its reported GI50.
> 25 µM

Please report the measured GI50 for `CSc1ccccc1C#C/C=C\C#Cc1ccccc1N`
3.3 µM

Item `COc1ccccc1Nc1ncc(-c2ccccc2)o1` : provide GI50
> 25 µM

Give the value of GI50 reported for the following: `Cc1cc(N(CCCNc2ccnc3cc(Cl)ccc23)Cc2ccc3c(c2)OCO3)nc(N2CCOCC2)n1`
0.304 µM

Fill in reported GI50 for this entry: `O=C1c2cccc3cccc(c23)C(=O)N1CCCCCN1CCN(CCCCCOc2ccc(-c3nc4ccc(N5CCOCC5)cc4[nH]3)cc2)CC1`
22.4 µM

====

In this section, each of the molecules is paired with its reported TGI.
- System: OVCAR-3 ovarian
- test name: NCI tumour cell line growth inhibition, 48 h

molecule: C=C1C(=O)OC2CC(C)C(C(O)CC(C)O)=CCC12 (centres undefined)
recorded result: 25.2 µM

Give TGI for the following molecule: `BrCc1cccc(C[P+](c2ccccc2)(c2ccccc2)c2ccccc2)c1`
> 100 µM

Give TGI for `CCOC(=O)Cc1ccc(Nc2nc3ccccc3nc2C(=O)OCC)cc1`
> 100 µM

Item `O=C(CNS(=O)(=O)Cc1ccccc1)NNc1ccccc1` : provide TGI
> 100 µM

====

- System: CCRF-CEM leukemia
- test name: NCI tumour cell line growth inhibition, 48 h; in the data active = GI50 below about 0.43 µM; inactive = the rest
Where a SMILES comes first, the peptide text is derived from it. The star is where a group is joined. Boc = CC(C)(C)OC(=O)*
Bench note: report the call from T = active, F = inactive

compound: COC(=O)C(C)NC(=O)C(CCSC)NC(=O)C(Cc1ccccc1)NC(=O)OC(C)(C)C (stereo not drawn) (Boc-Phe-Met-Ala-OMe; configuration not given here)
assigned class: F
--
compound: COc1cc(/C=C/C(=O)c2cccc(-n3cc(-c4ccc(Cl)cc4)[nH]c3=O)c2)ccc1O
assigned class: F
--
compound: CC(C(=O)O)c1cccc(Oc2ccccc2)c1 (stereo unspecified)
assigned class: F
--
compound: CN(C)C(=S)Sc1ccc([N+](=O)[O-])cc1[N+](=O)[O-]
assigned class: T
--
compound: COC(=O)c1ccc2c(c1)/C(=C\c1cc(Br)c(O)c(Br)c1)C(=O)N2
assigned class: F

# outcome recorded in this test, key = `NCCCn1c2c(c3ccc([N+](=O)[O-])cc3c1=O)C(=O)c1ccccc1-2`
T
